- Tested on: SW-620 colon
- ASSAY NAME: NCI-60 one-dose screen, 48 h (100 = growth as untreated, 0 = no growth, -100 = all killed)
- CONDITION LABEL: 10 µM unless noted
This is part of a sample that, as a whole, favours compounds with a hit. Of some 83,000 tested, about 20% had one in any assay.
Form field: growth (one value per entry).
Report the figure in % without appending any unit label.

COMPOUND STRUCTURE STRING	growth, %
C[C@H]1[C@H]2[C@H]3CC[C@@H]4[C@@]5(C)CC[C@H](O)C(C)(C)[C@@H]5CC[C@@]4(C)[C@]3(C)CC[C@]23CO[C@]1(C)[C@@H](C(=O)/C=C\c1ccco1)C3	97.1
O=S(=O)(NCCNc1nccc(-c2c(-c3cccc(O)c3)nc3occn23)n1)c1ccc(C(F)(F)F)cc1	126

As a next step, examine the molecule that follows.
In: Need growth of "CCOC(=O)c1cc(C(=O)c2ccc(OC)c(OC)c2)n2ccc(/C=C/c3cc[n+](CC(=O)c4ccc(OC)c(OC)c4)cc3)cc12" , thanks.
Out: 96.7

====

- System: NCI-H23 lung
- ASSAY NAME: NCI-60 one-dose screen, 48 h (100 = growth as untreated, 0 = no growth, -100 = all killed)
- CONDITION LABEL: 10 µM unless noted
Compounds without any hit were thinned out: in the full panel of roughly 83,000, 20% have a hit. Active and inactive are the calls of the source. The calls were made as follows: active = growth percent below 10; inactive = the rest.
Form field: growth (one value per entry).

> print(dat)
                                   molecule  assayed.target   observed.result
1  COc1ccc(C(=O)c2cc(C)c(OC)c(C)c2)c(OC)c1OC(=O)C(Cl)Cl    NCI-H23 lung  29.2% (inactive)
2  CN1CCN(c2ccc(NC3=C(Cl)C(=O)c4ncccc4C3=O)cc2C(F)(F)F)CC1    NCI-H23 lung  58.7% (inactive)
3  O=C(/C(=C/c1ccc([N+](=O)[O-])cc1)SCc1ccc(F)cc1)c1ccc(F)cc1    NCI-H23 lung  74.8% (inactive)

In: Need growth of "Brc1ccc(Nc2csc(-c3ccccn3)n2)cc1" , thanks.
Out: 87.7% (inactive)

In: # iterate: "CCc1c(Cl)nc(N)nc1Nc1ccc(C)c(C)c1"
Out: 96.9% (inactive)

In: # iterate: "O=C1Nc2cc(-c3cccc(O)c3)ccc2/C1=C/c1ccc[nH]1"
Out: 4.68% (active)

In: # iterate: CC(Sc1nc2sc3c(c2c(=O)n1-c1ccc(Cl)cc1)CCCC3)C(=O)Nc1nc(-c2ccc(Br)cc2)cs1 (stereo unspecified)
Out: 95.3% (inactive)

In: # iterate: "Cc1cc2c(c(C)c1Cl)C(=O)/C(=C/c1ccc(O)c(O)c1)O2"
Out: 94.6% (inactive)

In: # iterate: "CCc1ccc(-c2cn3ccnc3c(-c3ccc4ncn(Cc5ccccc5)c4c3)n2)cc1"
Out: 77% (inactive)

====

Form field: growth (one value per entry).
- System: NCI-H226 lung
- ASSAY NAME: NCI-60 one-dose screen, 48 h (100 = growth as untreated, 0 = no growth, -100 = all killed)
- CONDITION LABEL: 10 µM unless noted
This is part of a sample that, as a whole, favours compounds with a hit. Of some 83,000 tested, about 20% had one in any assay.
Report the figure in % without appending any unit label.

COMPOUND STRUCTURE STRING	ASSAYED TARGET	growth, %
COc1ccc(NC(N)=NCCCOc2ccc(F)cc2)cc1	NCI-H226 lung	91
Cc1c(C(=O)NCCC(=O)NO)sc2ncnc(Nc3ccc(NC(=O)Nc4cccc(C(F)(F)F)c4)cc3)c12	NCI-H226 lung	97.9

In: Need growth of "CCN1Cc2nc3sc(C)c(C)c3c(=O)n2C=C1C" , thanks.
Out: 77.8

In: # iterate: "COc1cc(-c2n/c(=C\c3c(O)[nH]c4ccc(Cl)cc34)cc3c2=Nc2ccccc2-3)ccc1F"
Out: 60.5

In: # iterate: "CN1CCN(C(=O)[C@]23CCC(C)(C)C[C@H]2C2=CC[C@@H]4[C@@]5(C)C/C(=C/c6ccncc6)C(=O)C(C)(C)[C@@H]5CC[C@@]4(C)[C@]2(C)CC3)CC1"
Out: 68.7

In: # iterate: "N#C/C(=C\c1ccc(Cl)cc1)n1nnc2cc(F)c(F)cc21"
Out: 83.8

In: # iterate: "C[C@H]1[C@H](C)CC[C@]2(C(=O)NCC#CCN3CCN(C)CC3)CC[C@]3(C)C(=CC[C@@H]4[C@@]5(C)Cc6c([nH]c7ccccc67)C(C)(C)[C@@H]5CC[C@]43C)[C@H]12"
Out: 100

In: # iterate: "COc1cc2cc(Oc3cccc(NC(=O)Nc4cc(C(F)(F)F)cc(C(F)(F)F)c4)c3)c(C)nc2cc1OC"
Out: -10.2
